- Protocol description: Oral bioavailability in Beagle dog at 1 mg/kg
- Format: ADME, organism-based, Canis lupus familiaris
- Conditions: in vivo

- Compound: "CNC(=O)c1ccc(N2CCN(Cc3ccc4nc(C)c(=O)[nH]c4c3F)CC2)c(F)n1 [AZD-9574]"
  bioavailability / %: 91

---

- Assayed system: Voltage-gated inwardly rectifying potassium channel KCNH2 (Homo sapiens, UniProt Q12809)
- Sequence (Q12809 whole entry): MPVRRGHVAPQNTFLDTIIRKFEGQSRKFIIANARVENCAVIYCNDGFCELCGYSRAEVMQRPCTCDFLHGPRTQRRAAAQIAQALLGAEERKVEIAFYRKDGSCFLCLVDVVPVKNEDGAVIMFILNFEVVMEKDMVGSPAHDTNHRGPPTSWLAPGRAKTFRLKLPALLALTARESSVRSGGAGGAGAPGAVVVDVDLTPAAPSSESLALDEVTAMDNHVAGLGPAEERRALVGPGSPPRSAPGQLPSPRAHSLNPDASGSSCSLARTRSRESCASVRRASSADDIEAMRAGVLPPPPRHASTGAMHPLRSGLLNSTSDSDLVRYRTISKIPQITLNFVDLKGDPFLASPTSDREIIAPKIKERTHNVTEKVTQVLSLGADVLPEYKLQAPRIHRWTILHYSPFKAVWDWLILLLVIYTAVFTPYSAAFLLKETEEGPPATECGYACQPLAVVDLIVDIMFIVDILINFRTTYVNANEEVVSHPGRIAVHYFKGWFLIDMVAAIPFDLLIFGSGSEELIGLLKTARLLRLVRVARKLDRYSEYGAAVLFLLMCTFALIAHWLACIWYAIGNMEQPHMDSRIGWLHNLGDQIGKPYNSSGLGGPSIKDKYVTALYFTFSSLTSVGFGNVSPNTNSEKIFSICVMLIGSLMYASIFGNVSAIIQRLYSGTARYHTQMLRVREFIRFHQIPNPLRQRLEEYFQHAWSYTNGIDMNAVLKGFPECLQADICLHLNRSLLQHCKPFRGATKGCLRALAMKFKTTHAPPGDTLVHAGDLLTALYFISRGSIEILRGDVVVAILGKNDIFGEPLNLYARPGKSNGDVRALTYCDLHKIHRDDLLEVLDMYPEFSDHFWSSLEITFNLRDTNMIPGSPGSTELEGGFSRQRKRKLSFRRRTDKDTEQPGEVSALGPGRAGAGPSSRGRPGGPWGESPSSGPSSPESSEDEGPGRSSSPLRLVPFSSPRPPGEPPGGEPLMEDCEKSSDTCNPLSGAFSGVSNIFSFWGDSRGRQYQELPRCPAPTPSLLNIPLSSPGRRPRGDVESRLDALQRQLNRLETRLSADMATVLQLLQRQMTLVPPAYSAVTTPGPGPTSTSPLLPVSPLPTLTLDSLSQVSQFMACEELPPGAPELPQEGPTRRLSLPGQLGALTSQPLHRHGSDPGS
- Protocol description: Inhibition of hERG transfected in CHO cells by electrophysiology

- Substance smiles: "CCc1nc2ccc(CN3CCN(c4cnc(F)cc4C)CC3)cc2[nH]c1=O"
  Readout qualifier: "="
  IC50 / µM: 23
- Substance smiles: "CNC(=O)c1ccc(N2CCN(Cc3ccc4c5c(c(=O)[nH]c4c3)COCC5)CC2)cn1"
  Readout qualifier: ">"
  IC50 / µM: 40
- Substance smiles: "CCc1cc2ccc(CN3CCN(c4ccc(C(=O)NC)nc4C)CC3)cc2[nH]c1=O"
  Readout qualifier: "="
  IC50 / µM: 17
- Substance smiles: "CCc1nc2ccc(CN3CCN(c4ccc(F)nc4)CC3)cc2[nH]c1=O"
  Readout qualifier: ">"
  IC50 / µM: 40
- Substance smiles: "CCc1nc2ccc(CN3CCN(c4ccc(F)nc4C)CC3)cc2[nH]c1=O"
  Readout qualifier: "="
  IC50 / µM: 11
- Substance smiles: "CCc1cc2ccc(CN3CCN(c4cnc(C(=O)NC)cc4C)CC3)cc2[nH]c1=O"
  Readout qualifier: "="
  IC50 / µM: 8

---

- Protocol description: Unbound fraction in Beagle dog plasma at 1 mg/kg, po or 1 mg/kg, iv
- Type: ADME, organism-based, Canis lupus familiaris
- Conditions: in vivo
Readout label: Fu (%)

- Molecule: "CNC(=O)c1ccc(N2CCN(Cc3ccc4nc(C)c(=O)[nH]c4c3F)CC2)c(F)n1 [AZD-9574]"
  Reported: 25

---

- Protocol description: Half life in Cynomolgous monkey at 1 mg/kg, po or 0.5 mg/kg, iv
- Type: ADME, organism-based, Macaca fascicularis
- Conditions: cynomolgus monkey, in vivo

- Substance smiles: "CNC(=O)c1ccc(N2CCN(Cc3ccc4nc(C)c(=O)[nH]c4c3F)CC2)c(F)n1"
  half-life [h]: 10.5

---

- Protocol description: Oral bioavailability in Han Wistar rat at 1 mg/kg
- Assay type: ADME, organism-based
- Conditions: in vivo

- Compound: "CNC(=O)c1ccc(N2CCN(Cc3ccc4nc(C)c(=O)[nH]c4c3F)CC2)c(F)n1 [AZD-9574]"
  bioavailability: "50%"

---

- Protocol description: Oral bioavailability in Cynomolgous monkey at 1 mg/kg
- Format: ADME, organism-based, Macaca fascicularis
- Conditions: cynomolgus monkey, in vivo

- Substance smiles: "CNC(=O)c1ccc(N2CCN(Cc3ccc4nc(C)c(=O)[nH]c4c3F)CC2)c(F)n1"
  bioavailability: "95%"

---

Measured microsomal CLint, listed per entry.
- Protocol description: Intrinsic clearance in human liver microsomes
- Assay type: ADME, Microsome
- Conditions: read-out: CLH
Readout label: microsomal CLint (µL/min/mg)

- Compound: "CCc1nc2ccc(CN3CCN(c4ccc(C(=O)NC)nc4F)CC3)c(F)c2[nH]c1=O"
  Readout label: "microsomal CLint"
  Readout qualifier: "<"
  Reported: 5
- Compound: "CCc1nc2ccc(CN3CCN(c4ccc(C(=O)NC)nc4F)CC3)cc2[nH]c1=O"
  Readout label: "microsomal CLint"
  Readout qualifier: "="
  Reported: 8
- Compound: "CCc1nc2ccc(CN3CCN(c4ccc(F)nc4C)CC3)cc2[nH]c1=O"
  Readout label: "microsomal CLint"
  Readout qualifier: "="
  Reported: 13
- Compound: "CCc1nc2ccc(CN3CCN(c4cnc(F)cc4C)CC3)cc2[nH]c1=O"
  Readout label: "microsomal CLint"
  Readout qualifier: "="
  Reported: 19
- Compound: "CCc1cc2ncc(CN3CCN(c4ccc(C(=O)NC)nc4)CC3)cc2[nH]c1=O [SARUPARIB]"
  Readout label: "microsomal CLint"
  Readout qualifier: "<"
  Reported: 6
- Compound: "CCc1nc2ccc(CN3CCN(c4ccc(C(=O)NC)nc4Cl)CC3)cc2[nH]c1=O"
  Readout label: "microsomal CLint"
  Readout qualifier: "="
  Reported: 10
- Compound: "CNC(=O)c1ccc(N2CCN(Cc3ccc4nc(C)c(=O)[nH]c4c3)CC2)c(F)n1"
  Readout label: "microsomal CLint"
  Readout qualifier: "<"
  Reported: 3
- Compound: "CNC(=O)c1ccc(N2CCN(Cc3ccc4nc(C)c(=O)[nH]c4c3F)CC2)c(C)n1"
  Readout label: "microsomal CLint"
  Readout qualifier: "<"
  Reported: 3
- Compound: "CCc1nc2ccc(CN3CCN(c4ccc(C(=O)NC)nc4C)CC3)cc2[nH]c1=O"
  Readout label: "microsomal CLint"
  Readout qualifier: "="
  Reported: 10
- Compound: "CNC(=O)c1ccc(N2CCN(Cc3ccc4nc(C)c(=O)[nH]c4c3F)CC2)c(F)n1 [AZD-9574]"
  Readout label: "microsomal CLint"
  Readout qualifier: "<"
  Reported: 3
- Compound: "CCc1nc2ccc(CN3CCN(c4ccc(F)nc4)CC3)cc2[nH]c1=O"
  Readout label: "microsomal CLint"
  Readout qualifier: "<"
  Reported: 3
- Compound: "CCc1nc2ccc(CN3CCN(c4ccc(C(=O)NC)nc4F)CC3)c(Cl)c2[nH]c1=O"
  Readout label: "microsomal CLint"
  Readout qualifier: "="
  Reported: 10
- Compound: "CCc1cc2ccc(CN3CCN(c4ccc(C(=O)NC)nc4C)CC3)cc2[nH]c1=O"
  Readout label: "microsomal CLint"
  Readout qualifier: "="
  Reported: 19
- Compound: "CCc1cc2ccc(CN3CCN(c4cnc(C(=O)NC)cc4C)CC3)cc2[nH]c1=O"
  Readout label: "microsomal CLint"
  Readout qualifier: "="
  Reported: 33
- Compound: "CNC(=O)c1ccc(N2CCN(Cc3ccc4c5c(c(=O)[nH]c4c3)COCC5)CC2)cn1"
  Readout label: "microsomal CLint"
  Readout qualifier: "="
  Reported: 17
- Compound: "CCc1nc2ccc(CN3CCN(c4ccc(C(=O)NC)nc4F)CC3)c(C)c2[nH]c1=O"
  Readout label: "microsomal CLint"
  Readout qualifier: "<"
  Reported: 3

---

- Protocol description: Lipophilicity, log D of compound at pH 7.4
- Assay type: physicochemical
- Conditions: buffer
Measured logD, listed per entry.

- Substance smiles: "CNC(=O)c1ccc(N2CCN(Cc3ccc4nc(C)c(=O)[nH]c4c3)CC2)c(F)n1"
  logD: 2.1
- Substance smiles: "CCc1nc2ccc(CN3CCN(c4ccc(C(=O)NC)nc4Cl)CC3)cc2[nH]c1=O"
  logD: 3
- Substance smiles: "CCc1nc2ccc(CN3CCN(c4ccc(C(=O)NC)nc4F)CC3)c(Cl)c2[nH]c1=O"
  logD: 3.1
- Substance smiles: "CCc1nc2ccc(CN3CCN(c4ccc(C(=O)NC)nc4F)CC3)c(C)c2[nH]c1=O"
  logD: 3.1
- Substance smiles: "CCc1nc2ccc(CN3CCN(c4ccc(C(=O)NC)nc4F)CC3)cc2[nH]c1=O"
  logD: 2.7
- Substance smiles: "CCc1nc2ccc(CN3CCN(c4ccc(C(=O)NC)nc4C)CC3)cc2[nH]c1=O"
  logD: 2.9
- Substance smiles: "CCc1cc2ccc(CN3CCN(c4ccc(C(=O)NC)nc4C)CC3)cc2[nH]c1=O"
  logD: 3.3
- Substance smiles: "CCc1nc2ccc(CN3CCN(c4ccc(F)nc4)CC3)cc2[nH]c1=O"
  logD: 2.6
- Substance smiles: "CCc1cc2ccc(CN3CCN(c4cnc(C(=O)NC)cc4C)CC3)cc2[nH]c1=O"
  logD: 3.3
- Substance smiles: "CCc1nc2ccc(CN3CCN(c4ccc(F)nc4C)CC3)cc2[nH]c1=O"
  logD: 3.3
- Substance smiles: "CNC(=O)c1ccc(N2CCN(Cc3ccc4nc(C)c(=O)[nH]c4c3F)CC2)c(C)n1"
  logD: 2.2
- Substance smiles: "CCc1nc2ccc(CN3CCN(c4cnc(F)cc4C)CC3)cc2[nH]c1=O"
  logD: 3.3
- Substance smiles: "CNC(=O)c1ccc(N2CCN(Cc3ccc4c5c(c(=O)[nH]c4c3)COCC5)CC2)cn1"
  logD: 2
- Substance smiles: "CCc1nc2ccc(CN3CCN(c4ccc(C(=O)NC)nc4F)CC3)c(F)c2[nH]c1=O"
  logD: 2.6
- Substance smiles: "CNC(=O)c1ccc(N2CCN(Cc3ccc4nc(C)c(=O)[nH]c4c3F)CC2)c(F)n1"
  logD: 1.9

---

- Protocol description: Oral bioavailability […] in CD-1 mouse at 1 mg/kg
- Assay type: ADME, organism-based
- Conditions: in vivo

- Substance smiles: "CNC(=O)c1ccc(N2CCN(Cc3ccc4nc(C)c(=O)[nH]c4c3F)CC2)c(F)n1"
  bioavailability (%): 116

Just for reference, ChEMBL document CHEMBL6078698 is where these values come from.
